Task for the reader: assign each of the following molecules its reported IC50.
# target_or_test_system: BRD4 (Homo sapiens (Human), UniProt O60885)
# protocol_summary: BRD4 IC50 (acetyl-histone binding assay)
# condition_summary: second BRD4 value listed for the compound
Answer in nM, number only, no unit symbol.

Could you tell me which IC50 is on file for COc1cc(C(=O)N2CCC(N3CCN(C)CC3)CC2)ccc1Nc1ccc2c(n1)N(C)c1ccccc1C(=O)N2C [Compound 3] ?
813

Could you tell me which IC50 is on file for CN1C(=O)c2ccccc2N(C)c2nc(Nc3ccc(S(N)(=O)=O)cc3)ccc21 [Compound 2-221] ?
3270

Could you tell me which IC50 is on file for COc1cc(C(=O)NC2CCN(C)CC2)ccc1Nc1ccc2c(n1)N(C)c1ccccc1C(=O)N2C [Compound 2-227] ?
1870

----------
# target_or_test_system: BRD4 (Homo sapiens (Human), UniProt O60885)
# protocol_summary: BRD4 IC50 (acetyl-histone binding assay)
measure_name: IC50

Could you tell me which IC50 is on file for C[C@@H](Oc1cc(-n2cnc3ccc(CN4CCN(C)CC4)cc32)sc1C(N)=O)c1ccccc1C(F)(F)F [GSK461364, reference compound] ?
> 50 µM

----------
Task for the reader: assign each of the following compounds its reported pIC50.
# Test system: MV411
# protocol_summary: Cellular assay, cell viability (ATPlite), MV411
# Format: cell-based
# condition_summary: Homo sapiens, MV4-11; MV411 cell line
# log scale: pIC50 equals minus log10 of the concentration in mol/L

Could you tell me which pIC50 is on file for COc1cc(C(=O)N2CCC(N3CCN(C)CC3)CC2)ccc1Nc1ccc2c(n1)N(C)c1ccccc1C(=O)N2C ?
5.85

Could you tell me which pIC50 is on file for Cc1sc2c(c1C)C(c1ccc(Cl)cc1)=N[C@@H](CC(=O)OC(C)(C)C)c1nnc(C)n1-2 [JQ1, reference compound] ?
7.18
